All values here come from PubChem BioAssay (NCI).

Provide the recorded TGI for the entries that follow.
Test system: UACC-62 melanoma
protocol.summary: NCI tumour cell line growth inhibition, 48 h

Worked cases, answers included:
{"molecule": "O=C1N(Cc2ccccc2Cl)c2ccccc2C12NN=C(c1cccc(Cl)c1)S2 (centres undefined)", "result": "3.52 µM"}
{"molecule": "N/C1=C/C(=O)NC(=O)c2c(c3ccccc3oc2=O)C1", "result": "> 100 µM"}
{"molecule": "O=C(NCCCl)SCCO", "result": "> 100 µM"}

Please find the next molecule below.
q: Param item = "O=C1C(c2c(O)[nH]c3ccc(Br)cc23)=Nc2ccc(Br)cc21" ; retrieve measured TGI.
a: > 100 µM

* * *

Provide the recorded TGI for the entries that follow.
Test system: OVCAR-4 ovarian
protocol.summary: NCI tumour cell line growth inhibition, 48 h
Give bare numbers, in µM.

Worked cases, answers included:
{"molecule": "CC(=O)NC(C=O)C(O[C@H](C)C(=O)NC(C)C(=O)NC(CCC(N)=O)C(=O)OCc1ccccc1)C(O)C(O)COC(=O)CCNc1c2ccccc2nc2cccc([N+](=O)[O-])c12 (some centres undefined)", "TGI / µM": 25.3}
{"molecule": "CC(=O)c1ccc(NC(=O)COC(=O)c2cccc3c(=O)c4ccccc4[nH]c23)cc1", "TGI / µM": 25.9}
{"molecule": "Cc1cc(O)c(C2=NN(c3ccc(S(N)(=O)=O)cc3)C(/C=C/c3ccccc3)C2)cc1Cl (centres undefined)", "TGI / µM": 18.9}

Please find the next molecule below.
q: Param item = "COc1cc2c(/C=C3/C(=O)N(C)c4ccc(O)cc43)c(Cl)[nH]c2cc1C" ; retrieve measured TGI.
a: 21.6

* * *

Test system: T-47D breast
protocol.summary: NCI tumour cell line growth inhibition, 48 h
Provide the recorded TGI for the entries that follow.

Worked cases, answers included:
{"compound": "COc1nc2ccc(COc3ccc(C(=O)O)cc3)cc2nc1OC", "target.of.assay": "T-47D breast", "TGI": "> 100 µM"}
{"compound": "COC(=O)C1(SC)C2CCC3C2CCC31 (stereo not given)", "target.of.assay": "T-47D breast", "TGI": "> 100 µM"}
{"compound": "COc1ccccc1C(=O)NCC1CCCN2CCCCC12 (stereo not given)", "target.of.assay": "T-47D breast", "TGI": "> 100 µM"}

List reported TGI for each of these compounds:
1. COC(=O)C1OC(O[C@H]2CC[C@]3(C)[C@H]4CC=C5[C@@H]6CC(C)(C)CC[C@]6(C(=O)OC6OCC(O)C(O)C6OC6OC(C)C(OC7OCC(O)C(O)C7O)C(OC7OCC(O)(CO)C7O)C6O)[C@H](O)C[C@@]5(C)[C@]4(C)CC[C@H]3C2(C)C)C(O)C(O)C1O (stereo not given in full)
2. CC(C)c1ccccc1SCc1cc(=O)cc(CSc2ccccc2C(C)C)o1

a:
1. 15.3 µM
2. > 100 µM

* * *

Provide the recorded log10 TGI for the entries that follow.
Tested on: TK-10 renal
protocol.summary: NCI tumour cell line growth inhibition, 48 h
In our notation, the value equals log10 of TGI in µM.

Worked cases, answers included:
{"compound": "CC(C)c1ccccc1SCc1cc(=O)cc(CSc2ccccc2C(C)C)o1", "log10 TGI": 1.59}
{"compound": "N#CC(C#N)=C/C=C(\\Sc1ccc(F)cc1Cl)c1ccc(Cl)cc1", "log10 TGI": 0.32}
{"compound": "C#CC(O)/C=C/CCCCCCC#CC/C=C\\CC#CCCCCCCCCC(O)C#C (stereo unspecified)", "log10 TGI": 1.45}
{"compound": "Cc1cc2nc3c(C#N)c4c(c(-c5ccc(Cl)cc5)n3c2cc1C)CCC4", "log10 TGI": 1.78}
{"compound": "COCCOCCOCc1n(Cc2ccc3ccccc3n2)c2ccccc2[n+]1Cc1ccc2ccccc2n1", "log10 TGI": 1.21}

List reported log10 TGI for each of these compounds:
1. CC(C)(C)OC(=O)NCc1cccc(N=C=S)c1
2. Cc1c2c(c(C)c3c1[nH]c1ccccc13)CN(C)CC2
3. CCCCCCCCCCCCCC[n+]1ccc(C)cc1

a:
1: 1.85; 2: 1.71; 3: 0.32

List reported log10 TGI for each of these compounds:
1. CC1=CP(=O)(c2c(C(C)C)cc(C(C)C)cc2C(C)C)CCC1Cl (stereo unspecified)
2. COc1cc(-c2c3c(cc4c2OCO4)[C@@H](Nc2ccc(-c4ccc(-c5ccc(N[C@@H]6c7cc8c(cc7C(c7cc(OC)c(O)c(OC)c7)[C@H]7C(=O)OC[C@H]67)OCO8)cc5)cc4)cc2)[C@H]2COC(=O)[C@@H]2C3)cc(OC)c1O (stereo partly specified)
3. CC1OC(CC(=O)O)CC2=C1C(=O)c1c(O)cccc1C2=O (stereo unspecified)

a:
[1.49, 0.93, 0.26]

* * *

Provide the recorded GI50 for the entries that follow.
Test system: PC-3 prostate
protocol.summary: NCI tumour cell line growth inhibition, 48 h

Worked cases, answers included:
{"compound": "CC(=O)/C=C/c1ccc(OCc2ccc(Cl)cc2)cc1", "GI50": "725 µM"}
{"compound": "CC1SC2(CCCCC2)N(NC(=O)c2[nH]c3ccc(Br)cc3c2-c2ccccc2)C1=O (centres undefined)", "GI50": "7.45 µM"}
{"compound": "COc1c(N2CCN(CN3C(=O)C(=O)c4cc(Cl)ccc43)C(C)C2)c(F)cc2c(=O)c(C(=O)O)cn(C3CC3)c12 (centres undefined)", "GI50": "10.8 µM"}

Please find the next compound below.
q: Param item = "CC(=O)O[C@H]1CC[C@@]2(C)C(=C/C(=N/OCCN3CCCC3)[C@H]3[C@@H]4CC[C@H](OC(C)=O)[C@@]4(C)CC[C@@H]32)C1" ; retrieve measured GI50.
a: 40.5 µM

* * *

Provide the recorded TGI for the entries that follow.
Test system: SR leukemia
protocol.summary: NCI tumour cell line growth inhibition, 48 h

Worked cases, answers included:
{"compound": "CC([O-])=C1C(=O)c2ccccc2C1=O.CC([O-])=C1C(=O)c2ccccc2C1=O.CC[O-].CC[O-].[Ti+4]", "TGI": "> 100 µM"}
{"compound": "C/C(=C/CC[C@]1(CO)CC[C@]2(C)[C@H](CC[C@@H]3[C@@]4(C)CC[C@H](OC5OC(CO)C(O)C(O)C5OC5OC(CO)C(O)C(O)C5O)C(C)(C)[C@@H]4CC[C@]32C)[C@H]1O)CO (some centres undefined)", "TGI": "> 100 µM"}
{"compound": "CN(CCc1ccccn1)C(=S)N/N=C(\\c1ccccc1)c1ccccn1", "TGI": "15.9 µM"}

List reported TGI for each of these compounds:
1. O=C(O)c1nc2ccc(C(F)(F)F)cc2nc1Nc1ccc(F)cc1
2. CN(CCC(=O)/C(=C\c1ccccc1)c1ccc(Cl)cc1)Cc1ccccc1

a:
["36.8 µM", "5.81 µM"]

List reported TGI for each of these compounds:
1. CC(C)=CC[C@]12CCN(C)[C@H]1N(S(=O)(=O)c1ccccc1)c1ccccc12
2. NC(=S)N1N=C2c3ccccc3CC[C@H]2[C@@H]1c1ccc(Cl)cc1
3. Cc1cc(Cl)ccc1C(=O)c1ccc2ccccc2c1C(=O)O
4. [N-]=[N+]=CC(=O)OCCCCl

a:
1: > 100 µM; 2: > 100 µM; 3: > 100 µM; 4: > 100 µM

* * *

Test system: SK-OV-3 ovarian
protocol.summary: NCI tumour cell line growth inhibition, 48 h
measured.attribute: TGI

{"compound": "CC(Oc1ccccc1)C(=O)NNC(=O)OC(C)(C)C (stereo not given)", "result": "> 100 µM"}
{"compound": "O=C1CCCCC12CCC/C2=N\\O (stereo not given)", "result": "> 100 µM"}
{"compound": "Cc1ccc(C2NC(=O)c3ccccc3N2)c(C)c1 (stereo not given)", "result": "> 100 µM"}

List reported TGI for each of these compounds:
1. Nc1nc(N)c2nc3c(nc2n1)CCCCCCCCCC3
2. COc1cc(-c2c3c(cc4c2OCO4)[C@@H](Nc2ccc(-c4ccc(-c5ccc(N[C@@H]6c7cc8c(cc7C(c7cc(OC)c(O)c(OC)c7)[C@H]7C(=O)OC[C@H]67)OCO8)cc5)cc4)cc2)[C@H]2COC(=O)[C@@H]2C3)cc(OC)c1O (stereo not given in full)
3. Cn1cc(C(=O)c2ccccc2)cc(C(=O)c2ccccc2)c1=O

a:
1. > 100 µM
2. 10.1 µM
3. > 100 µM

List reported TGI for each of these compounds:
1. O=C(CCCN1CCC(C(O)c2ccc(F)cc2)CC1)c1ccc(F)cc1 (stereo not given)
2. O=C(NCCCl)SCCO
3. COc1ccc(C(=O)C#Cc2c[nH]c(=O)[nH]c2=O)cc1
4. Cc1nc2cc(Nc3ccccc3C(=O)O)ccc2s1

a:
["138 µM", "> 100 µM", "> 100 µM", "> 100 µM"]
